Assign protein stability index to each entry below.
B1: ANKRD40 (parent)
chain: SLRENDFIEIELDRQELTYQELLR

variants of: B1; test: protein stability index of a GFP-peptide fusion (GPS, HEK-293T) (PSI 1-6); higher = more stable; settings: c terminus: a fixed tail appended;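 further: lentivirally expressed fusions sorted by FACS into six bins by GFP to DsRed ratio, PSI derived from sequencing read proportions per bin multiplied by bin number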
Numbers only.

Exercise: Which protein stability index reading was recorded for the variant `E16R` ?
Solution: 3.04

Exercise: Next entry: `N5M`
Solution: 2.4

Exercise: Also `F7C` , if possible.
Solution: 3.87

Exercise: Can you check `D13E` next?
Solution: 2.82

Exercise: Param item: `Q20P`
Solution: 2.95

Exercise: Lookup `L17C`
Solution: 3.12

Exercise: Same thing, different variant: `N5P`
Solution: 3.34

Exercise: And what about the variant `I8H` ?
Solution: 3.99

Could you report protein stability index for every entry in the following list?
1. S1F
2. D13P
3. L12H
4. N5F
5. L12M

Solution:
[2.29, 2.77, 3.82, 2.2, 2.67]

Dear colleague, could you please provide protein stability index for the variants listed below?
1. R24V
2. I10E
3. F7A
4. R3L
5. E4R
6. R14E
7. R24Q

Solution:
2.71
4.63
4.21
2.29
2.31
3.37
3.04

Look up protein stability index for the entries below, preserving their order.
1. I8E
2. I10T
3. L17Q

Solution:
[4.46, 4.06, 3.57]

Give measured protein stability index for every item shown.
1. I10R
2. L17N
3. Q20K
4. E16A
5. L22C
6. R14Q

Solution:
1. 3.53
2. 3.54
3. 3.2
4. 2.8
5. 3.58
6. 3.41
